Recorded values, source BindingDB's records for patent US20240317745.

biological target: Sigma non-opioid intracellular receptor 1 (Cavia porcellus); assay: Binding Affinity Assay
Sequence (Q60492 whole entry): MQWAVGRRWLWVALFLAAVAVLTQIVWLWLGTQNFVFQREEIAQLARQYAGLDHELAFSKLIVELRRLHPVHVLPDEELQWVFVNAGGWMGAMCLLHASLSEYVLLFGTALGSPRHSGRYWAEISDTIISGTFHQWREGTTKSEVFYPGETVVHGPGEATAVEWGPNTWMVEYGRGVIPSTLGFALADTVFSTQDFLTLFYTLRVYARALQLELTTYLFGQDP
measurementType: Ki (µM)

OC1CCN(Cc2cc(-c3ccc(F)c(F)c3)no2)CC1 : 0.308
Fc1ccc(-c2cc(COCCN3CCOCC3)on2)cc1F : 0.0803

(1) OC1CCN(CCOCc2cc(-c3ccc(Cl)c(Cl)c3)no2)CC1
(2) Clc1ccc(-c2noc(COCCN3CCOCC3)c2Br)cc1Cl
Compare the recorded Ki of 1 and 2 ; state which is larger. Bench note: the answer is the label of the chosen record.
2
(2: 0.0844 µM, 1: 0.0396 µM)
